# Test system: Caco-2 cells
# Assay Notes: Caco-2 cell assay permeability
# Type: in vitro ADME, Human
# Condition Set: apparent permeability coefficient (Papp); apical pH 6.5 to basolateral pH 7.4; 20 μM test solution; 37° C.
Provide the recorded Caco-2 permeability for the entries that follow.
One number for each entry, in ×10⁻⁶ cm/s.

Below, each entry is followed by its recorded Caco-2 permeability result.
INSERT INTO measurements (structure, test_target, numeric_result) VALUES
  ('C[C@H](N)C(=O)OC[C@@H]1O[C@H](n2cnc(C(N)=O)n2)[C@@H](O)[C@H]1O.Cc1ccc(S(=O)(=O)O)cc1', 'Caco-2 cells', 1.2),
  ('CC[C@H](C)[C@H](N)C(=O)OC[C@@H]1O[C@H](n2cnc(C(N)=O)n2)[C@@H](O)[C@H]1O.Cc1ccc(S(=O)(=O)O)cc1', 'Caco-2 cells', 1.5);

Please give Caco-2 permeability, item by item, for the list that follows.
1. CC(C)C(=O)O[C@@H]1[C@H](OC(=O)C(C)C)[C@@H](n2cnc(C(N)=O)n2)O[C@H]1CO
2. CC(C)C[C@H](N)C(=O)OC[C@@H]1O[C@H](n2cnc(C(N)=O)n2)[C@@H](O)[C@H]1O.Cc1ccc(S(=O)(=O)O)cc1

Result:
1. 4.8
2. 0.9

---

Provide the recorded Caco-2 permeability for the entries that follow.
# Tested on: Caco-2 cells
# Assay Notes: Caco-2 cell assay permeability
# Type: in vitro ADME, Human
# Condition Set: apparent permeability coefficient (Papp); apical pH 6.5 to basolateral pH 7.4; 20 μM test solution; 37° C.
Answers are plain numbers, in ×10⁻⁶ cm/s.

Below, each entry is followed by its recorded Caco-2 permeability result.
INSERT INTO assay_data (molecule, numeric_result) VALUES
  ('CCCCCCCC(=O)OC[C@@H]1O[C@H](n2cnc(C(N)=O)n2)[C@@H](O)[C@H]1O [Compound 34]', 6.5),
  ('CC(C)[C@H](N)C(=O)OC[C@@H]1O[C@H](n2cnc(C(N)=O)n2)[C@@H](O)[C@H]1O.Cl [Compound 5]', 5.6),
  ('NC(=O)c1ncn([C@H]2O[C@@H](CO)[C@H](OC(=O)c3ccccc3)[C@@H]2OC(=O)c2ccccc2)n1 [Compound 28]', 26.6);

Task: # Caco-2 permeability lookup, item CCC(=O)OC[C@@H]1O[C@H](n2cnc(C(N)=O)n2)[C@@H](OC(=O)CC)[C@H]1OC(=O)CC [Compound 2]
Result: 7.8
